# System: TK-10 renal
# assay procedure: NCI-60 one-dose screen, 48 h
# protocol conditions: 10 µM unless noted
This is part of a sample that, as a whole, favours compounds with a hit. Of some 83,000 tested, about 20% had one in any assay. Calls of active or inactive are those of the source. Rule for the calls: active = growth percent below 10; inactive = the rest.
Possible outcomes: active, inactive

# molecule, category
records = [
    ("C[C@@H]1CC[C@H]2[C@@H](C)C(O)O[C@@H]3O[C@]4(C)CC[C@@H]1[C@]32OO4 (stereo partly drawn)", "inactive"),
    ("Cc1nn(-c2ccc(Cl)cc2)c2nc3c(nc12)c(=O)oc1ccccc13", "inactive"),
    ("CC(=O)Oc1ccc(C23c4ccccc4C2(OC(C)=O)c2cc(OC(C)=O)ccc23)cc1 (stereo not drawn)", "inactive"),
    ("Cc1c(C(N)=O)sc2c1c(=O)n(Cc1ccccc1)c1nnc(SCC(=O)Nc3ccc(Cl)cc3)n21", "active"),
    ("Cc1ccc(NC(=O)Nc2ccc(-c3cccnc3)cc2N2CCC(CO)CC2)cc1", "inactive"),
    ("O=C1Cc2cc(CCn3cncn3)c(Cl)cc2N1", "inactive"),
    ("C=Cc1nn2c(CCC(=O)c3nc4ccccc4[nH]3)nnc2s1", "inactive"),
    ("C[N+]1(CCc2ccccc2)CCC(CCC2CC[N+](C)(CCc3ccccc3)CC2)CC1 (stereo not drawn)", "inactive"),
    ("CCCCCCCCCCC[C@@H](C[C@H]1OC(=O)[C@H]1CCCCCC)OC(=O)[C@@H](CC(C)C)NC=O", "inactive"),
    ("CCCCCCCC1(C)NC(=O)NC1=O (stereo not drawn)", "inactive"),
    ("O=NC1CC=CCC1c1ccccc1 (stereo not drawn)", "inactive"),
    ("O=c1c(O)cccn1CCCNCCCN(CCCn1cccc(O)c1=O)CCCn1cccc(O)c1=O", "inactive"),
    ("CC(O)c1nc2c(c(=O)n(C)c(=O)n2C)n1C (stereo not drawn)", "inactive"),
    ("O=C1C(=O)c2ccc(Br)cc2-c2cc(Br)ccc21", "inactive"),
    ("CCCc1cc(=O)n2c(C(=O)Nc3ccccc3OC)c(C(=O)Nc3ccc(F)cc3)sc2n1", "inactive"),
    ("COc1ccc(-c2cncn2-c2ccc(-c3nc4cc(OC)c(OC)c(OC)c4s3)cc2)cc1N", "inactive"),
    ("Fc1ccc([C@@H]2CCNC[C@H]2COc2ccc3c(c2)OCO3)cc1", "inactive"),
    ("Cn1cc(-c2csc(-c3c[nH]c4ncccc34)n2)c2cc(F)cnc21", "inactive"),
    ("CCOC(=O)c1c(C)nc(C)c(C(=O)OCC)c1-c1cccnc1", "inactive"),
    ("O=C(CN1CCCCC1)Sc1nnc2sc3ccccc3n12", "inactive"),
    ("CCN(CC)c1ccc(N=Nc2cc(Cl)ccc2Cl)c(NC(=O)CCC(=O)O)c1", "inactive"),
    ("COc1ccc(/C=N/NC(=O)c2ccc(S(C)(=O)=O)cc2)cc1OC", "inactive"),
    ("c1cnc2ccc3ncccc3c2c1", "inactive"),
]

###

# Tested on: NCI-H522 lung
# assay procedure: NCI-60 one-dose screen, 48 h (100 = growth as untreated, 0 = no growth, -100 = all killed)
# protocol conditions: 10 µM unless noted
The panel holds about 83,000 compounds, 20% with a hit somewhere; the sample as a whole holds those more often. Calls of active or inactive are those of the source. The calls were made as follows: active = growth percent below 10; inactive = the rest.
measured metric: growth

# compound, value reported
records = [
    ("O=C(Nc1ccc(Nc2ccncc2)cc1)c1ccc(Nc2ccnc3ccc([N+](=O)[O-])cc23)cc1[N+](=O)[O-]", "43.2% (inactive)"),
    ("Cc1ccc(C(=O)Nc2ccc(Cl)cc2C(=O)NCc2ccccc2)cc1", "53.9% (inactive)"),
    ("CN1C(=O)C(=Cc2cn(Cc3ccccc3)c3ccc(Br)cc23)C(=O)N(C)C1=O", "94.4% (inactive)"),
    ("COc1ccc(-c2c(N)noc2-c2cc(OC)c3c(c2)OCCO3)cc1", "0.361% (active)"),
    ("CCN(CC)c1ccc(C(O)C2=CC(=O)c3ccccc3C2=O)cc1 (stereo not given)", "-62.2% (active)"),
]

###

# System: SK-OV-3 ovarian
# assay procedure: NCI-60 one-dose screen, 48 h (100 = growth as untreated, 0 = no growth, -100 = all killed)
# protocol conditions: 10 µM unless noted
# Method: Growth inhibition of the SK-OV-3 human tumor cell line is measured as a screen for anti-cancer activity. Cells are grown in 96 well plates and exposed to the test compound for 48 hours. Compounds are tested at a single concentration, which is 10^-5 M for most compounds. The reported endpoint is percent growth (GI% or GIPRCNT), where numbers from 0 - 100% represent growth inhibition, and numbers from -100% - 0 represent cell death. For example, a value of 40 represents 60% growth inhibition. […]
The panel holds about 83,000 compounds, 20% with a hit somewhere; the sample as a whole holds those more often.
Overview of recorded growth for various compounds
measured metric: growth (%)

# compound, value reported
rows = [
    ("CCN(CC)c1ccc(N=Nc2cc(Cl)ccc2Cl)c(NC(=O)CCC(=O)O)c1", 97.5),
    ("CSc1nc2c(c(=O)[nH]1)C(c1ccc(Cl)cc1)C1=C(N2)/C(=C/c2ccc(Cl)cc2)CNC1 (stereo not drawn)", 87.4),
    ("O=C1Nc2ccc(F)cc2/C1=C/c1nc(-c2ccc(F)cc2)n2ccccc12", 108),
]

###

# System: SNB-75 CNS
# assay procedure: NCI-60 one-dose screen, 48 h
# protocol conditions: 10 µM unless noted
About 83,000 compounds went through this panel and 20% of them were active in at least one assay; those are over-represented in the sample as a whole. Activity calls are given as the source filed them. How the source made its calls: active means growth percent below 10; inactive means the rest.
Possible outcomes: active, inactive

# compound, subject of test, category
data = [
    ("C=C(C[C@](O)(C(=O)/C=C/c1ccc(Cl)cc1)C(=O)OC)c1ccccc1", "SNB-75 CNS", "inactive"),
    ("COc1cc2c(c(OC)c1OC)-c1ccc(NN(C(=O)c3ccccc3)C(=O)c3ccccc3)c(=O)cc1[C@@H](NC(C)=O)CC2 (tested in a mixture with another compound)", "SNB-75 CNS", "inactive"),
    ("Cc1[nH]n(C(N)=S)c(=O)c1N=Nc1ccc(F)c(Cl)c1", "SNB-75 CNS", "inactive"),
    ("O=C(NN(C(=O)c1ccccc1)c1cccs1)c1ccccc1", "SNB-75 CNS", "inactive"),
    ("[O-]/[N+](=C\\C=C\\c1ccccc1)c1ccccc1", "SNB-75 CNS", "inactive"),
    ("CC(=O)Nc1ccc2c(c1)Cc1c(F)c(F)c(F)c(F)c1-2", "SNB-75 CNS", "inactive"),
    ("CCCc1nn(C)c2c(=O)[nH]c(-c3cc(S(=O)(=O)N4CCN(C)CC4)ccc3OCC)nc12", "SNB-75 CNS", "inactive"),
    ("CCOC(Cc1c(N)[nH]c(=S)[nH]c1=O)OCC", "SNB-75 CNS", "inactive"),
    ("O=C(/C=C/c1cccnc1)NCCCCC1CCCN(C(=O)c2ccccc2)C1 (stereo not drawn)", "SNB-75 CNS", "inactive"),
    ("O=C1C(=O)c2ccc(Br)cc2-c2cc(Br)ccc21", "SNB-75 CNS", "inactive"),
    ("COc1ccc(/C=C(\\C#N)c2ccccc2)cc1", "SNB-75 CNS", "inactive"),
    ("Nc1cc(Cl)c(S(N)(=O)=O)cc1S(N)(=O)=O", "SNB-75 CNS", "inactive"),
    ("CC12CCCCC1C(C(N)=O)C(=O)O2 (stereo not drawn)", "SNB-75 CNS", "inactive"),
    ("COc1cc2c(cc1OCCCOc1ccc(-c3cc4ccccc4c4ccccc34)cc1)N=C[C@@H]1CCCN1C2=O", "SNB-75 CNS", "active"),
    ("COc1cccc2c1C(=O)c1c(O)c3c(c(O)c1C2=O)C[C@@](O)(/C(C)=N/NC(=O)c1cccc([N+](=O)[O-])c1)C[C@@H]3OC1CC(N)C(O)C(C)O1 (stereo partly drawn)", "SNB-75 CNS", "active"),
    ("O=C(CSc1nc2c(n1Nc1ccccc1)-c1ccccc1SC2)Nc1nc(-c2ccc(Cl)cc2)cs1", "SNB-75 CNS", "inactive"),
    ("Nc1ccc2c(c1)/C(=N/O)c1cc([N+](=O)[O-])ccc1-2", "SNB-75 CNS", "inactive"),
    ("S=C(Nc1ccc(C2=NCCN2)cc1)Nc1ccc(C2=NCCN2)cc1", "SNB-75 CNS", "inactive"),
    ("CC(=O)O[C@H]1C(=O)[C@@]2(C)C([C@H](OC(=O)c3ccccc3)[C@]3(O)C[C@H](OC(=O)[C@H](O)[C@@H](NC(=O)c4ccccc4)c4ccccc4)C(C)=C1C3(C)C)[C@]1(OC(C)=O)CO[C@@H]1C[C@@H]2O (stereo partly drawn)", "SNB-75 CNS", "active"),
    ("O=C(Nc1ccc(Oc2ccc(NC(=O)Nc3ccc([N+](=O)[O-])cc3)cc2)cc1)Nc1ccc([N+](=O)[O-])cc1", "SNB-75 CNS", "inactive"),
    ("Fc1ccc(-c2nc(Nc3ccc(-c4nc5ccccc5[nH]4)cc3)nc(N3CCOCC3)n2)cc1", "SNB-75 CNS", "active"),
    ("O=C(Nc1ccncc1)C(=O)c1cn(S(=O)(=O)c2cccc(F)c2)c2ccccc12", "SNB-75 CNS", "inactive"),
    ("COc1cc(C2=NN(C(C)=O)C(c3ccc(OC(C)=O)cc3OC(C)=O)O2)c(OC(C)=O)c2ccccc12 (stereo not drawn)", "SNB-75 CNS", "inactive"),
]
